# TARGET SYSTEM: GDP-bound KRAS protein (aa 1-169), containing both G12C and C118A amino acid substitutions (Homo sapiens, UniProt P01116, C118A/G12C)
# Sequence (P01116 1-169 isoform P01116-2 G12C/C118A): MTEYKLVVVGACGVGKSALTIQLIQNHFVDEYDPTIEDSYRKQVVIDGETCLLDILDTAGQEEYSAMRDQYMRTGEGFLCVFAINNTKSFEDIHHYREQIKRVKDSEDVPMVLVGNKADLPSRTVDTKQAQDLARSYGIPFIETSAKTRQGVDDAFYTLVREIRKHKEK
# EXPERIMENT NOTES: Coupled Nucleotide Exchange Assay (Table 16 conditions: 5 min pre-incubation)
# Type: biochemical
# SETTINGS: 5 min compound pre-incubation; SOS-mediated nucleotide exchange, AlphaScreen
# Protocol: For compounds in Table 16, the following assay conditions were employed: The assay plates were then read on a PerkinElmer EnVision Multilabel Reader, using AlphaScreen® technology, and data were analyzed using a 4-parameter logistic model to calculate IC50 values.
Kindly note that classification relies on IC50 with these boundaries: range A = under 200 nM, range B = from 200 nM up to 400 nM, range C = 400 nM and over

Q: Please indicate the class for C=CC(=O)N1CCN(c2nc(=O)n(-c3c(C)ccnc3C3CC3)c3nc(-c4c(O)cccc4F)c(F)cc23)[C@@H](C)C1 [Example 42-2] based on its IC50.
Ans: range C

Q: Category of C=CC(=O)N1CCN(c2nc(=O)n(-c3ccccc3C(C)C)c3nc(-c4ccccc4F)c(C)nc23)[C@@H](C)C1 [Example 51] , please.
Ans: range C

Q: Which band does C=CC(=O)N1CCN(c2nc(=O)n(-c3ccccc3C(C)C)c3nc(-c4ccccc4F)c(C)nc23)[C@@H](C)C1 (single isomer, unassigned) [Example 51-1] fall in?
Ans: range C

Q: In plain terms, what class is C=CC(=O)N1CCN(c2nc(=O)n(-c3c(C)ccnc3CC)c3nc(-c4ccccc4F)c(Cl)cc23)[C@@H](C)C1 [Example 46] ?
Ans: range C

Q: Please report the category associated with C=CC(=O)N1CCN(c2nc(=O)n(-c3scnc3C(C)C)c3nc(-c4c(O)cccc4F)c(Cl)cc23)[C@@H](C)C1 , nothing else.
Ans: range A

Q: Kindly identify the class of C=CC(=O)N1CCN(c2nc(=O)n(-c3ccccc3C(C)C)c3nc(-c4ccccc4F)c(C)nc23)[C@@H](C)C1 (single isomer, unassigned) [Example 51-2] .
Ans: range B

Q: Bin this entry: C=CC(=O)N1CCN(c2nc(=O)n(-c3c(C)ccnc3CC)c3nc(-c4ccccc4F)c(Cl)cc23)[C@@H](C)C1 [Example 46-1]
Ans: range A

Q: Please classify: C=CC(=O)N1CCN(c2nc(=O)n(-c3ccccc3C(C)C)c3nc(-c4c(O)cccc4F)c(C)cc23)[C@@H](C)C1 (single isomer, unassigned) [Example 52-1]
Ans: range C

Q: Which IC50 category applies to C=CC(=O)N1CCN(c2nc(=O)n(-c3c(C)ccnc3CC)c3nc(-c4ccccc4F)c(Cl)cc23)[C@@H](C)C1 [Example 46-2] here?
Ans: range C

Q: Band for C=CC(=O)N1CCN(c2nc(=O)n(-c3ccccc3C(C)C)c3nc(-c4ccccc4F)c(Cl)nc23)[C@@H](C)C1 (single isomer, unassigned) [Example 50-2] ?
Ans: range C

Q: Could you place C=CC(=O)N1CCN(c2nc(=O)n(-c3c(C)ccnc3C3CC3)c3nc(-c4ccccc4F)c(Cl)cc23)[C@@H](C)C1 [Example 45] in its proper category? Many thanks.
Ans: range B

Q: State the class of the compound shown: C=CC(=O)N1CCN(c2nc(=O)n(-c3c(C(C)C)ncnc3C(C)C)c3nc(-c4ccccc4F)c(Cl)cc23)[C@@H](C)C1
Ans: range A

Q: In plain terms, what class is C=CC(=O)N1CCN(c2nc(=O)n(-c3ccccc3C(C)C)c3nc(-c4c(O)cccc4F)c(C)cc23)[C@@H](C)C1 [Example 52] ?
Ans: range B

Q: Hi, small favor: classify C=CC(=O)N1CCN(c2nc(=O)n(-c3c(C)cnn3C(C)C)c3nc(-c4ccccc4F)c(Cl)cc23)[C@@H](C)C1 (single isomer, unassigned) [Example 53-2] by its IC50 when you get a moment.
Ans: range B

Q: Category lookup for the compound C=CC(=O)N1CCN(c2nc(=O)n(-c3ccccc3C(C)C)c3nc(-c4ccccc4F)c(Cl)nc23)[C@@H](C)C1 [Example 50]
Ans: range B

Q: Please let me know in which category the item C=CC(=O)N1CCN(c2nc(=O)n(-c3ccccc3C(C)C)c3nc(-c4c(O)cccc4F)c(C)cc23)[C@@H](C)C1 (single isomer, unassigned) [Example 52-2] belongs.
Ans: range A

Q: # bin label for C=CC(=O)N1CCN(c2nc(=O)n(-c3c(C)ccnc3C(C)C)c3nc(-c4ccccc4F)c(Cl)cc23)[C@@H](C)C1 [Example 40-1]
Ans: range A

Q: Dear colleague, I would appreciate it if you could identify the bin for C=CC(=O)N1CCN(c2nc(=O)n(-c3c(C)ccnc3C3CC3)c3nc(-c4c(O)cccc4F)c(Cl)cc23)[C@@H](C)C1 [Example 44] and reply at your convenience.
Ans: range A

Q: Record C=CC(=O)N1CCN(c2nc(=O)n(-c3ccccc3C(C)C)c3nc(-c4ccccc4F)c(Cl)nc23)[C@@H](C)C1 (single isomer, unassigned) [Example 50-1] — which class?
Ans: range A

Q: Tag the class for C=CC(=O)N1CCN(c2nc(=O)n(-c3c(C)cccc3C(C)C)c3nc(-c4c(O)cccc4F)c(Cl)cc23)[C@@H](C)C1 [Example 39-2]
Ans: range B

Q: In plain terms, what class is C=CC(=O)N1CCN(c2nc(=O)n(-c3c(C)ccnc3C3CC3)c3nc(-c4c(O)cccc4F)c(F)cc23)[C@@H](C)C1 [Example 42] ?
Ans: range B

Q: Hi, small favor: classify C=CC(=O)N1CCN(c2nc(=O)n(-c3ccccc3C(C)(C)C)c3nc(-c4c(O)cccc4F)c(Cl)cc23)[C@@H](C)C1 [Example 49] by its IC50 when you get a moment.
Ans: range A

Q: Please report the category associated with C=CC(=O)N1CCN(c2nc(=O)n(-c3c(C)cccc3C(C)C)c3nc(-c4c(O)cccc4F)c(Cl)cc23)[C@@H](C)C1 [Example 39-1] , nothing else.
Ans: range A

Where do the numbers come from? From patent US11905281B2.
